- study-system: Anoctamin-1 (Mus musculus) (UniProt Q8BHY3)
- Sequence (Q8BHY3 whole entry, looked up): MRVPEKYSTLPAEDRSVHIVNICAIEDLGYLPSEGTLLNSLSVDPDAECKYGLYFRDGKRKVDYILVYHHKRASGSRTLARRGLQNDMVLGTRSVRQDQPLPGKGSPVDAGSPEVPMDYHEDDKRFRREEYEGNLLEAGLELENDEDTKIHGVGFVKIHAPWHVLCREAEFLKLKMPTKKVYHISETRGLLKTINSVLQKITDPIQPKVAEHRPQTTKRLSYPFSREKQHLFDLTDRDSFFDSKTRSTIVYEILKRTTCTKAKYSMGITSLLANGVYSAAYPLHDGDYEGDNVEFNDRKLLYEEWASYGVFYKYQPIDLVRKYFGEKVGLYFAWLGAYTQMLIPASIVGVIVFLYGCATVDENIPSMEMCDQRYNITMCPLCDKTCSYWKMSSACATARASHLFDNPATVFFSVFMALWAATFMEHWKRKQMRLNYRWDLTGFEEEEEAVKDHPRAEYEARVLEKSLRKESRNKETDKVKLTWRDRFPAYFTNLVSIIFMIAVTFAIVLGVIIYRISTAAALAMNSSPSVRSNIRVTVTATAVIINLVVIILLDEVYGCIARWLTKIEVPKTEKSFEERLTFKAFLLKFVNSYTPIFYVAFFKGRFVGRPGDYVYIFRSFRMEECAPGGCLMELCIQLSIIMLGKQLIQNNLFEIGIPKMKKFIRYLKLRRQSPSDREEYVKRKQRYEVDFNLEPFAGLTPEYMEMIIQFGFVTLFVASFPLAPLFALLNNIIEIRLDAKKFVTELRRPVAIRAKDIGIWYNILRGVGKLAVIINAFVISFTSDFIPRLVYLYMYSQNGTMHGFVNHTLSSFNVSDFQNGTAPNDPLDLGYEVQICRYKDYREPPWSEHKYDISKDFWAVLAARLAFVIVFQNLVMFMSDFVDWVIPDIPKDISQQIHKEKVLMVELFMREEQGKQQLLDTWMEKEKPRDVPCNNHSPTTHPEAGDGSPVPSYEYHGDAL
- assay-name: blockers of mouse ANO1 Ca-activated Cl channel – cell-based, HTS, primary screen (AID 588511)
- test-conditions: HEK293 TMEM16A/YFP iodide influx fluorescence, ionomycin; at 10 µM
Hit rate of the full screen: of about 310,000 compounds, about 3,600 (1.2%) were called active.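 How the source made its calls: active means ratio plate-corrected score three or more library SD toward inhibition, starting fluorescence score within five deviations; inactive means the rest.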 The entries come from a sample that favours actives as a whole.
Mark one answer only. Choices: 1.0 for active, 0.0 for inactive

As a guide, the following entries are already answered.
| molecule | study-system | assigned-label |
| --- | --- | --- |
| Cc1c(C)c2c(OCC(=O)NCCCO)cc3c(c2oc1=O)CCC(C)(C)O3 | Anoctamin-1 (Mus musculus) (UniProt Q8BHY3) | 0.0 |
| COc1ccc(CCNc2cc(C)nc3c(-c4ccc(Cl)cc4)c(C)nn23)cc1OC | Anoctamin-1 (Mus musculus) (UniProt Q8BHY3) | 0.0 |
| CCCCn1c(N)c(N(CC(C)C)C(=O)CN(C)S(=O)(=O)c2ccc(F)cc2)c(=O)[nH]c1=O | Anoctamin-1 (Mus musculus) (UniProt Q8BHY3) | 0.0 |
| Cc1cccc(-c2c(NC(=O)c3ccco3)oc3ccc(Cl)cc3c2=O)c1 | Anoctamin-1 (Mus musculus) (UniProt Q8BHY3) | 0.0 |
| CC(c1ccccn1)N(CCN(C)C)C(=S)Nc1ccccc1F (configuration not stated) | Anoctamin-1 (Mus musculus) (UniProt Q8BHY3) | 0.0 |
| Cc1ccnc(NC(=O)C2CCN(S(=O)(=O)c3c(C)c(C)cc(C)c3C)CC2)c1 | Anoctamin-1 (Mus musculus) (UniProt Q8BHY3) | 0.0 |
| CSc1cccc(NC(=S)N(Cc2ccccc2)Cc2ccccn2)c1 | Anoctamin-1 (Mus musculus) (UniProt Q8BHY3) | 0.0 |
| Cc1cc(=O)oc2c3c(cc(OCC(=O)N[C@H](C(=O)O)c4ccccc4)c12)OC(C)(C)CC3 | Anoctamin-1 (Mus musculus) (UniProt Q8BHY3) | 0.0 |
| CSc1cccc(NC(=S)N(C(C)C)C(C)c2ccccn2)c1 (configuration not stated) | Anoctamin-1 (Mus musculus) (UniProt Q8BHY3) | 1.0 |
| C=CCn1c2ccccc2c2nnc(SCc3[nH]c(=O)[nH]c3C(=O)CCCCC(=O)OCC)nc21 | Anoctamin-1 (Mus musculus) (UniProt Q8BHY3) | 0.0 |

Okay, now this molecule:
Query: Check the results log: what was the call for COc1ccc(-c2c(-c3ccc(OC)cc3O)nc(C)nc2C(F)(F)F)cc1 ?
Result: 0.0
